Data provenance is EPA's aquatic toxicity sets.

System: Tetrahymena pyriformis
METHOD_NOTES: 48 h IGC50 (-log10 mol/L); higher = more toxic
REPORTED_ENDPOINT: 48 h IGC50 (-log10 mol/L)
Please give the numeric answer without any surrounding text.

Observe how each entry below is paired with its result.
INSERT INTO measurements (molecule, reported_endpoint, test_result) VALUES
  ('CNCCc1ccccc1', '48 h IGC50 (-log10 mol/L)', 2.59),
  ('CC/C=C\CO', '48 h IGC50 (-log10 mol/L)', 1.9),
  ('NCCCCO', '48 h IGC50 (-log10 mol/L)', 2.02),
  ('Oc1c(Br)cc(Br)cc1Br', '48 h IGC50 (-log10 mol/L)', 4.91),
  ('O=Cc1cccc2ccccc12', '48 h IGC50 (-log10 mol/L)', 3.42);

// BrCCCc1ccccc1 : 48 h IGC50 (-log10 mol/L) value = 3.69

---

48 h IGC50 (-log10 mol/L) values, listed per item
Test system: Tetrahymena pyriformis
METHOD_NOTES: 48 h IGC50 (-log10 mol/L); higher = more toxic

Observe how each entry below is paired with its result.
INSERT INTO results (molecule, reported_endpoint, test_result) VALUES
  ('Cc1ccccc1N', '48 h IGC50 (-log10 mol/L)', 2.84),
  ('CCOC(=O)Cc1ccc(O)c(OC)c1', '48 h IGC50 (-log10 mol/L)', 2.77),
  ('CCCCC/C=C/CCC=O', '48 h IGC50 (-log10 mol/L)', 4.21);

// CCCCCC#CC(=O)OC : 48 h IGC50 (-log10 mol/L) value = 4.04

// Cc1ccc(N)c(Cl)c1 : 48 h IGC50 (-log10 mol/L) value = 3.18

// Cc1ccc(CCN)cc1 : 48 h IGC50 (-log10 mol/L) value = 2.96

// CC(C)O : 48 h IGC50 (-log10 mol/L) value = 1.12

// NC(N)=S : 48 h IGC50 (-log10 mol/L) value = 1.68

// CCCCCCCCO : 48 h IGC50 (-log10 mol/L) value = 3.58

// COc1ccc(C=O)cc1O : 48 h IGC50 (-log10 mol/L) value = 2.86

// O=C(O)c1cc(Cl)ccc1O : 48 h IGC50 (-log10 mol/L) value = 2.6

// CCOC(=O)C(Br)CC (stereo not drawn) : 48 h IGC50 (-log10 mol/L) value = 3.76

---

Tested on: Daphnia magna
METHOD_NOTES: 48 h LC50 (-log10 mol/L); higher = more toxic
Assign true whenever 48 h LC50 (-log10 mol/L) does not fall below 5; assign false whenever it does.

INSERT INTO assay_data (molecule, class_name) VALUES
  ('CC(C)(C)NCC(O)COc1cccc2c1C[C@H](O)[C@H](O)C2 (stereo partly specified)', 'false'),
  ('CCCS', 'true'),
  ('S=P(N1CC1)(N1CC1)N1CC1', 'false'),
  ('O=[N+]([O-])c1cccc(Cl)c1Cl', 'false'),
  ('C[C@]12CC[C@H]3[C@@H](CCC4=CC(=O)CC[C@@]43C)[C@@H]1CC[C@@H]2O', 'true');

Continue with the next molecule.
Problem: Check the entry Clc1ccc(Cl)c(-c2cc(Cl)ccc2Cl)c1 : does 48 h LC50 (-log10 mol/L) equal or exceed 5?
Solution: true

---

Test system: Pimephales promelas
METHOD_NOTES: 96 h LC50 (-log10 mol/L); higher = more toxic
96 h LC50 (-log10 mol/L) values, listed per item

Observe how each entry below is paired with its result.
INSERT INTO results (compound, target_entity, test_result) VALUES
  ('O=[N+]([O-])c1ccc(O)c([N+](=O)[O-])c1', 'Pimephales promelas', 4.22),
  ('CC(C)c1ccc2c(c1)CC[C@H]1[C@](C)(C(=O)O)CCC[C@]21C', 'Pimephales promelas', 4.97),
  ('COP(O)(=S)OC', 'Pimephales promelas', 3.52),
  ('O=CC=O', 'Pimephales promelas', 2.43),
  ('Cc1c(Cl)cccc1NC=O', 'Pimephales promelas', 3.56);

// Oc1cccnc1Cl : 96 h LC50 (-log10 mol/L) value = 2.32

// CC(C)c1cccc(C(C)C)c1N : 96 h LC50 (-log10 mol/L) value = 4.1

// CCC(C)=NO : 96 h LC50 (-log10 mol/L) value = 2.01

// CCCCOC(=O)c1ccccc1C(=O)OCc1ccccc1 : 96 h LC50 (-log10 mol/L) value = 5.22

// CCCCCC(=O)O : 96 h LC50 (-log10 mol/L) value = 2.84

// CC(C)COC(=O)c1ccccc1C(=O)OCC(C)C : 96 h LC50 (-log10 mol/L) value = 5.49

// C=CCC#N : 96 h LC50 (-log10 mol/L) value = 2.57

// CCN(CC)N=O : 96 h LC50 (-log10 mol/L) value = 2.12

// CC(C)C(C(=O)OC(C#N)c1cccc(Oc2ccccc2)c1)c1ccc(Cl)cc1 (centres undefined) : 96 h LC50 (-log10 mol/L) value = 8.14

---

48 h IGC50 (-log10 mol/L) values, listed per item
Test system: Tetrahymena pyriformis
METHOD_NOTES: 48 h IGC50 (-log10 mol/L); higher = more toxic
Please give the numeric answer without any surrounding text.

INSERT INTO measurements (smiles_notation, test_result) VALUES
  ('O=[N+]([O-])c1ccc(O)c([N+](=O)[O-])c1', 4.06),
  ('CC(C)(CO)CBr', 2.54),
  ('O=C(O)CCCCCCCBr', 4.32),
  ('CC(C)c1ccccc1N', 3.12);

// CCOC(=O)C[C@H](C)O : 48 h IGC50 (-log10 mol/L) value = 1.47

// CCCC(CCC)C(=O)O : 48 h IGC50 (-log10 mol/L) value = 3.03

// O=C(Oc1cccc(O)c1)c1ccccc1 : 48 h IGC50 (-log10 mol/L) value = 4.11

// Cc1ccc(C)c(C)c1 : 48 h IGC50 (-log10 mol/L) value = 3.78

---

48 h IGC50 (-log10 mol/L) values, listed per item
System: Tetrahymena pyriformis
METHOD_NOTES: 48 h IGC50 (-log10 mol/L); higher = more toxic
Please give the numeric answer without any surrounding text.

Observe how each entry below is paired with its result.
INSERT INTO measurements (compound, test_result) VALUES
  ('CCCCCCCCCCC(C)O (configuration not stated)', 4.66),
  ('CCCCOC(=O)CC', 3.17),
  ('OC(c1ccccc1)c1ccccc1', 3.5),
  ('Oc1ccccc1Br', 3.33),
  ('OCc1cccc(Br)c1', 3.37);

// N#CCCCC#N : 48 h IGC50 (-log10 mol/L) value = 1.36

// Nc1c([N+](=O)[O-])cccc1[N+](=O)[O-] : 48 h IGC50 (-log10 mol/L) value = 3.84

// OCc1cccc(O)c1 : 48 h IGC50 (-log10 mol/L) value = 1.98

// OCCCc1cccnc1 : 48 h IGC50 (-log10 mol/L) value = 2.16

// C#CCSc1ccccc1 : 48 h IGC50 (-log10 mol/L) value = 3.54

// Cc1cccc(O)c1 : 48 h IGC50 (-log10 mol/L) value = 2.92

// Cc1cc(Cl)ncc1[N+](=O)[O-] : 48 h IGC50 (-log10 mol/L) value = 3.42

// Cc1cc(=O)[nH]cc1[N+](=O)[O-] : 48 h IGC50 (-log10 mol/L) value = 2.83

// C#CC(C)(C)N : 48 h IGC50 (-log10 mol/L) value = 2.09

---

Test system: Pimephales promelas
METHOD_NOTES: 96 h LC50 (-log10 mol/L); higher = more toxic
REPORTED_ENDPOINT: 96 h LC50 (-log10 mol/L)
Please give the numeric answer without any surrounding text.

// COCCN : 96 h LC50 (-log10 mol/L) value = 2.16

// Cc1ccc(C)c(O)c1C : 96 h LC50 (-log10 mol/L) value = 4.22

// ClC1=C(Cl)[C@]2(Cl)[C@H]3[C@H]([C@H](Cl)[C@]4(Cl)O[C@H]34)[C@@]1(Cl)C2(Cl)Cl : 96 h LC50 (-log10 mol/L) value = 8.1

// Oc1ccc(Cl)cc1Cc1cc(Cl)ccc1O : 96 h LC50 (-log10 mol/L) value = 5.94

---

Test system: Tetrahymena pyriformis
METHOD_NOTES: 48 h IGC50 (-log10 mol/L); higher = more toxic
Assign rule met whenever 48 h IGC50 (-log10 mol/L) does not fall below 3; assign rule not met whenever it does.

INSERT INTO results (molecule, target_entity, class_name) VALUES
  ('CCCCCC(C)O (centres undefined)', 'Tetrahymena pyriformis', 'rule not met');

Problem: Check the entry COC(=O)c1ccc(Cl)cc1[N+](=O)[O-] : does 48 h IGC50 (-log10 mol/L) equal or exceed 3?
Solution: rule met

Problem: Check the entry CC(C)(Br)C(=O)O : does 48 h IGC50 (-log10 mol/L) equal or exceed 3?
Solution: rule not met

Problem: Check the entry CCCCC/C=C/CO : does 48 h IGC50 (-log10 mol/L) equal or exceed 3?
Solution: rule met

Problem: Check the entry OCCBr : does 48 h IGC50 (-log10 mol/L) equal or exceed 3?
Solution: rule not met

Problem: Check the entry CCOC(=O)c1ccc([N+](=O)[O-])cc1 : does 48 h IGC50 (-log10 mol/L) equal or exceed 3?
Solution: rule met

Problem: Check the entry NC(=O)c1ccccc1[N+](=O)[O-] : does 48 h IGC50 (-log10 mol/L) equal or exceed 3?
Solution: rule not met

Problem: Check the entry CCCC(O)Cc1ccccc1 (centres undefined) : does 48 h IGC50 (-log10 mol/L) equal or exceed 3?
Solution: rule met

Problem: Check the entry N#CCCl : does 48 h IGC50 (-log10 mol/L) equal or exceed 3?
Solution: rule met
